test: RPL19A-GFP modulators, yeast TOR pathway, confirmation, cell-based, S. cerevisiae, flow cytometry, cherry picks, mother/daughter gates (AID 2270); settings: S. cerevisiae RPL19A-GFP strain, 3 h, measured here: daughter cell gate, at 10 µM, stronger effect = lower value, 100 = same GFP as DMSO wells
endpoint label: GFP response vs DMSO (%)
Kindly answer with a numeric value in %, unit omitted.

[Q] GFP response vs DMSO for OCC[n+]1ccc(/C=C/c2c[nH]c3ccccc23)cc1 ?
[A] 106

[Q] Please look up its GFP response vs DMSO: Cc1cc(C)c(S(C)(=O)=O)c(S(=O)(=O)c2ccc(Cl)cc2)n1
[A] 100

[Q] So what's the measured GFP response vs DMSO for this one? O=C(/C=C/c1ccccc1[N+](=O)[O-])c1ccccc1Br
[A] 94.8

[Q] For the molecule shown here, O=C(c1cc(-c2cccc(Cl)c2)on1)N1CCc2ccccc2C1 , give the reported GFP response vs DMSO.
[A] 100

[Q] Need GFP response vs DMSO of Oc1c(CN2CCN(c3ccccc3)CC2)cc(Br)c2cccnc12 , thanks.
[A] 101

[Q] Request the reported GFP response vs DMSO associated with CCOC(=O)CS(=O)(=O)c1nc(-c2ccccc2)cc(C(F)(F)F)n1
[A] 105

[Q] Reported GFP response vs DMSO for O=C(Nc1c2ccccc2nc2ccccc12)C(Cl)(Cl)Cl : what is it?
[A] 77.9

[Q] # input molecule: O=[N+]([O-])c1cnc(Sc2ccncn2)s1 ; wanted: its GFP response vs DMSO
[A] 105

[Q] Please report the recorded GFP response vs DMSO for O=C(O)CCc1ccc(-c2ccc(Cl)cc2)o1 .
[A] 91.7

[Q] Item under review: CCOC(=O)Cc1csc(NC(=O)c2sc3nc4ccc(C)cc4cc3c2N)n1 . Reported GFP response vs DMSO?
[A] 98.1

[Q] # GFP response vs DMSO lookup, item O=C(CSc1nnc(-c2ccccn2)n1Cc1ccccc1)N1CCOCC1
[A] 102

====

Provide the recorded GFP response vs DMSO for the entries that follow.
test: modulators of LAP4-GFP expression in yeast, primary screen, S. cerevisiae, multiplex flow cytometry (AID 1873); conditions: 3 h, at 10 µM, stronger effect = higher value
Records with an inconclusive call do not appear.
Provide the reading as a plain figure in %.

[Q] Param item = CC(=O)OCC(=O)[C@H]1CC[C@H]2[C@@H]3CC=C4C[C@@H](O)CC[C@]4(C)[C@H]3CC[C@]12C ; retrieve measured GFP response vs DMSO.
[A] 115

[Q] Need GFP response vs DMSO of CC(C)Cc1cc(C(=O)N2CCC(N3CCC(C(=O)N4CCCC4)CC3)CC2)n[nH]1 , thanks.
[A] 96.4

[Q] Query: GFP response vs DMSO; subject: CN(C)CCCN1c2ccccc2CCc2ccc(Cl)cc21
[A] 98

[Q] What value of GFP response vs DMSO has been reported for the following molecule? NC(=O)OCC(COC(N)=O)c1ccccc1
[A] 92.3

[Q] Entry under review: COc1ccc(NC(=O)C2C(=O)N(CCO)C3(C)CC2c2ccccc2O3)cc1 (stereo not given) . Reported GFP response vs DMSO?
[A] 79.8

[Q] Using the record for COc1ccc(C2N3CC4(C)CN2CC(C)(C3)C4)cc1OC (stereo not given) , report its GFP response vs DMSO.
[A] 87.3

[Q] Look at this molecule and give its reported GFP response vs DMSO. CC(C)Cn1c(=S)[nH]c2cc(C(=O)O)ccc2c1=O
[A] 84.3

[Q] Which GFP response vs DMSO reading was recorded for the molecule C[C@]12CCC(=O)C=C1CC[C@@H]1[C@@H]2C(=O)C[C@@]2(C)[C@H]1CC[C@]2(O)C(=O)CO ?
[A] 88

[Q] I am curious: what GFP response vs DMSO value has been reported for C=CCc1ccccc1OCC(O)CNC(C)C (stereo not given) ?
[A] 108

[Q] # get_value(readout='GFP response vs DMSO', item= CNCCC=C1c2ccccc2CCc2ccccc21 )
[A] 97.4

[Q] Need GFP response vs DMSO of COc1ccc(CCNC(=S)NC(=O)/C=C/c2ccc(C)cc2)cc1OC , thanks.
[A] 103

[Q] Please report the recorded GFP response vs DMSO for CCc1cc2c(=O)c(-c3ccc(F)cc3)c(C)oc2cc1OCC(=O)O .
[A] 88.1

[Q] I would be grateful if you could share the reported GFP response vs DMSO for CCOc1cccc(N2C(=O)CC(N(CCc3ccc(OC)c(OC)c3)C(=O)CC)C2=O)c1 (stereo not given) .
[A] 98.4

[Q] Give the measured GFP response vs DMSO of O=C1OCCN1/N=C/c1ccc([N+](=O)[O-])o1 .
[A] 111

[Q] Can you look up the measured GFP response vs DMSO of NC(=O)c1c(-c2ccccc2)oc2ccc(O)cc12 for me?
[A] 100

[Q] Need GFP response vs DMSO, item CC(C(=O)O)c1ccc(N2Cc3ccccc3C2=O)cc1 (stereo not given)
[A] 119

[Q] Need GFP response vs DMSO of NS(=O)(=O)c1cc2c(cc1Cl)NC(CSCc1ccccc1)=NS2(=O)=O , thanks.
[A] 84.2

[Q] What value of GFP response vs DMSO has been reported for the following molecule? CCn1cc(C(=O)O)c(=O)c2cnc(N3CCNCC3)nc21
[A] 91.3

[Q] // returns reported GFP response vs DMSO for input CC1=CC2(O)OCCN(CCO)C2=CC1=O (stereo not given)
[A] 93.3

[Q] Any idea what GFP response vs DMSO was measured for CC(O)Cn1cnc2c1c(=O)n(C)c(=O)n2C (stereo not given) ?
[A] 94.3

[Q] I have this molecule here, COc1ccc2cc(CCC(C)=O)ccc2c1 , and I need its recorded GFP response vs DMSO.
[A] 101

[Q] I am curious: what GFP response vs DMSO value has been reported for CCCC1O[C@@H]2C[C@H]3[C@@H]4CCC5=CC(=O)C=C[C@]5(C)[C@H]4[C@@H](O)C[C@]3(C)[C@]2(C(=O)CO)O1 (stereo not given in full) ?
[A] 100

[Q] Any idea what GFP response vs DMSO was measured for O=C(c1ccc(O)cc1)c1ccc(O)cc1O ?
[A] 101

[Q] Look up GFP response vs DMSO: CCOc1ccccc1OCCOc1ccc(F)cc1
[A] 88.1

[Q] Consider the molecule shown here: O=C(CCN1CCC(c2ccccc2)C1)c1ccc2c(c1)OCCO2 (stereo not given) What is its recorded GFP response vs DMSO?
[A] 104

[Q] Value lookup for GFP response vs DMSO; key = N#Cc1c2c(c(-c3ccccc3)[nH]c1=O)CCCC2
[A] 85.3

[Q] For the molecule shown here, C#C[C@]1(O)CC[C@H]2[C@@H]3CCC4=C(CCC(=O)C4)[C@H]3CC[C@@]21C , give the reported GFP response vs DMSO.
[A] 129

[Q] Would you mind telling me what GFP response vs DMSO value was observed for OCCN1CCN(CCCN2c3ccccc3Sc3ccc(Cl)cc32)CC1 ?
[A] 112

[Q] What GFP response vs DMSO value was documented for this molecule, C[C@]12C=CC(=O)C=C1CCC1C3CC[C@](O)(C(=O)CO)[C@@]3(C)CC3OC312 (stereo not given in full) ?
[A] 85.4

[Q] Could you tell me which GFP response vs DMSO is on file for O=C(/C=C/c1ccc(Cl)cc1)NCCc1ccccc1 ?
[A] 97.4

[Q] Requested field: GFP response vs DMSO. Item: CN(CCCN1CCOCC1)Cc1cn(C)nc1-c1ccccc1F
[A] 124

[Q] Could you tell me which GFP response vs DMSO is on file for Cc1nc2sccn2c(=O)c1CCN1CCC(=C(c2ccc(F)cc2)c2ccc(F)cc2)CC1 ?
[A] 121

[Q] I'd like to know its GFP response vs DMSO. The molecule in question is CNC[C@H](O)c1ccc(O)c(O)c1
[A] 97.4

[Q] Which value of GFP response vs DMSO has been reported for Cc1cc(-c2ccccc2)nnc1NCCN1CCOCC1 in the records?
[A] 74.3

[Q] Entry CCOc1ccc(NC(=O)N[C@@H](CCSC)C(=O)OC)cc1 has what GFP response vs DMSO?
[A] 96.4

[Q] Reported GFP response vs DMSO, molecule CC(=O)O[C@H]1C(=O)[C@@]2(C)[C@H]([C@H](OC(=O)c3ccccc3)[C@]3(O)C[C@H](OC(=O)[C@H](O)C(NC(=O)c4ccccc4)c4ccccc4)C(C)=C1C3(C)C)[C@]1(OC(C)=O)CO[C@@H]1C[C@@H]2O (stereo not given in full) : ____
[A] 90.3

[Q] Tell me the measured GFP response vs DMSO of COCCCC/C(=N\OCCN)c1ccc(C(F)(F)F)cc1 , please.
[A] 93.3

[Q] // lookup GFP response vs DMSO for O=C(O)CCSc1nc2ccccc2s1
[A] 106

[Q] GET /values?readout=GFP response vs DMSO&item= CC(=O)O[C@H]1CSC[C@H]1NC(=O)c1ccccc1
[A] 102

[Q] Consider the molecule Nc1nc2c(ncn2COCCO)c(=O)[nH]1 and give its measured GFP response vs DMSO.
[A] 74.8

[Q] Value lookup for GFP response vs DMSO; key = Cc1ccc2[nH]c3c(c2c1)CN(C(=O)CN1CCSCC1)CC3
[A] 102

[Q] Please report the recorded GFP response vs DMSO for Cc1ccc2c(c1)C(O)(c1c(C)[nH]c3ccccc13)C(=O)N2 (stereo not given) .
[A] 96.4

[Q] Using the record for CN(C)C(=O)C12CCC(C)(c3nc4ccccc4nc31)C2(C)C (stereo not given) , report its GFP response vs DMSO.
[A] 99.4

[Q] Endpoint output: GFP response vs DMSO of COc1cc(/C=C/C(=O)N2CCCC2)cc(OC)c1OC . Value?
[A] 76.9

[Q] Item COc1ccccc1C(=O)c1cc2ccc(O)cc2oc1=O has what recorded GFP response vs DMSO?
[A] 100
